Test system: Serine/threonine-protein kinase PLK1 (Homo sapiens)
Protocol text: qHTS for Inhibitors of PLK1-PDB (polo-like kinase 1 - polo-box domain): Primary Screen; also: series mostly up to about 57 µM; % is scaled to controls: 0 for no effect and ±100 for the full control effect; nearly all actives have a fitted effect of over 65% in size
Assay conditions: Plk1 PBD binding of FITC phosphopeptide, fluorescence polarization
The whole screen tested about 360,000 compounds, of which about 10,000 (2.8%) were called active. Not shown: some 4% with an inconclusive outcome. This is one part of a sample in which actives are shown more often than they occur.
Value type: max response, negative = inhibition (%)
I only need the number, in %, no unit after it.

                                   compound                               test_system  measurement_unit  assay_value
0  CC(=O)c1ccccc1NC(=O)COC(=O)C1COc2ccccc2O1 (stereo not given)  Serine/threonine-protein kinase PLK1 (Homo sapiens)                 %         4.38
1  Cc1noc(C)c1-c1ccc(C(=O)NCc2ccncc2)c2occc12  Serine/threonine-protein kinase PLK1 (Homo sapiens)                 %        -3.63
2               Cc1cc2cc3n(c2nn1)N=C(Cl)CC3  Serine/threonine-protein kinase PLK1 (Homo sapiens)                 %        -3.02
3  CCOC(=O)c1c(NC(=O)CSc2cn(CC)c3ccccc23)sc2c1CCC2  Serine/threonine-protein kinase PLK1 (Homo sapiens)                 %        -5.08
4  CCOc1ccc(CCN2C(=O)C(=O)N([C@@H](Cc3ccc(O)cc3)CN3CCC[C@H]3CN3C(=O)C(=O)NC[C@@H]3CC(C)C)C[C@@H]2Cc2ccccc2)cc1  Serine/threonine-protein kinase PLK1 (Homo sapiens)                 %          -15
5  COc1cc(OC)cc(C2=Cc3ccccc3C(CC(=O)c3ccco3)N2c2ccc(-c3cnc(OC)nc3)cc2)c1 (stereo not given)  Serine/threonine-protein kinase PLK1 (Homo sapiens)                 %      -0.0299

Just so you know, measured max response, negative = inhibition for COc1cc(/C=C(\C#N)C(=O)Nc2ccc3ccccc3c2)c([N+](=O)[O-])cc1OC came out at -1.73

Just so you know, measured max response, negative = inhibition for CN1OC[C@@H]2CN(C(=O)c3cccnc3)[C@H](c3ccc(N4CCCCC4)cc3)C[C@@H]21 came out at -6.62

Just so you know, measured max response, negative = inhibition for Cc1cc(C(=O)OCC(=O)N2C(C)CCCC2C)c2ccccc2n1 (stereo not given) came out at -9.12

Just so you know, measured max response, negative = inhibition for COc1ccc(Br)c(Cn2c(C)c(C(=O)NCc3cccs3)sc2=O)c1 came out at 8.23

Just so you know, measured max response, negative = inhibition for CCOC(=O)N1CCN(C(=O)C[C@@H]2C[C@@]3(C(=O)OC)CC(C)(C)CC=C3N(Cc3ccco3)C2=O)CC1 came out at 2.41

Just so you know, measured max response, negative = inhibition for Cc1nc(COc2cccc(Cl)c2)sc1C(=O)/C=C/N(C)C came out at 6.79

Just so you know, measured max response, negative = inhibition for Cc1ccc(S(=O)(=O)N2C[C@H]3C(=O)C[C@@H](c4cccc5ccccc45)N(S(=O)(=O)c4ccc(C)cc4)[C@H]3C[C@H]2c2ccc(Cl)cc2)cc1 came out at -18.3

Just so you know, measured max response, negative = inhibition for COc1ccc(CNC(=O)/C(C#N)=C/c2cccc(OC)c2OC)cc1 came out at -17

Just so you know, measured max response, negative = inhibition for CCCCNC(=O)OC1CC2CC1[C@H]1CCCCN1C2=O (stereo not given in full) came out at -1.73

Origin of measurements: PubChem BioAssay AID720504
